Test system: Escherichia coli IAI1
Assay: fold change of Cadaverine concentration vs plate DMSO controls (fold change (ratio)); higher = more amine produced, active = hit call of the paper (significant change in both replicates, either direction);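 for the amine columns active = adjusted P below 0.05 in both replicates with a change the same way and a mean fold change under 0.8 or over 1.25; inactive = the rest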
Conditions: incubation time: 27 h, anaerobic, 37 °C
Where a name gives a salt, the structure may show the parent alone.
Outcomes: active, inactive

{"columns": ["Compound", "Class"],
 "data": [
  ["CC(C)NCC(O)COc1cccc2[nH]ccc12 (stereo unspecified) [Pindolol] (20 µM)", "inactive"],
  ["O=[N+]([O-])c1ccc(O)c2ncccc12 [Nitroxoline] (20 µM)", "active"],
  ["Nc1nc(=O)c2c([nH]1)NC[C@@H](CNc1ccc(C(=O)N[C@@H](CCC(=O)O)C(=O)O)cc1)N2C=O [Folinic acid calcium salt] (20 µM)", "inactive"],
  ["CC(COc1ccccc1)N(CCCl)Cc1ccccc1 (stereo unspecified) [Phenoxybenzamine hydrochloride] (20 µM)", "inactive"],
  ["Cc1cc2cc3c(C)cc(=O)oc3c(C)c2o1 [Trioxsalen] (20 µM)", "inactive"],
  ["CC(=O)OC[C@H]1O[C@@H](n2ncc(=O)[nH]c2=O)[C@H](OC(C)=O)[C@@H]1OC(C)=O [Azaribine] (20 µM)", "inactive"],
  ["CN(Cc1cc(Br)cc(Br)c1N)C1CCCCC1 [Bromhexine hydrochloride] (20 µM)", "inactive"],
  ["C=CC(N)CCC(=O)O (stereo unspecified) [Vigabatrin hydrochloride] (20 µM)", "inactive"],
  ["CC(=O)[C@H]1CC[C@H]2[C@@H]3C=CC4=CC(=O)CC[C@@]4(C)[C@@H]3CC[C@]12C [Dydrogesterone] (20 µM)", "inactive"],
  ["CN1C2CCCC1CC(NC(=O)c1nn(C)c3ccccc13)C2 (stereo unspecified) [Granisetron] (20 µM)", "inactive"],
  ["CC(=O)O[C@H]1C[C@@H]2CC[C@@H]3[C@H](CC[C@@]4(C)[C@H]3C[C@H]([N+]3(C)CCCCC3)[C@@H]4OC(C)=O)[C@@]2(C)C[C@@H]1N1CCCCC1 [Vecuronium bromide] (20 µM)", "inactive"],
  ["CCOC(=O)[C@H](CCc1ccccc1)N[C@H]1CCc2ccccc2N(CC(=O)O)C1=O [Benazepril hydrochloride] (20 µM)", "inactive"],
  ["CS(=O)(=O)c1ccc(C2=C(c3ccccc3)C(=O)OC2)cc1 [Rofecoxib] (20 µM)", "inactive"],
  ["CCCCOc1ccc(C(=O)CCN2CCCCC2)cc1 [Dyclonine hydrochloride] (20 µM)", "inactive"],
  ["Fc1ccc(C(c2ccc(F)cc2)N2CCN(C/C=C/c3ccccc3)CC2)cc1 [Flunarizine dihydrochloride] (20 µM)", "inactive"],
  ["CN1CCC(OC(c2ccccc2)c2ccccc2)CC1 [Diphenylpyraline hydrochloride] (20 µM)", "inactive"]
]}
